Molecular target: T1, CD19 expressed by Nalm6 cells (UniProt P15391 20-556, limits assumed)
T1 construct: whole, on cells; Endogenous CD19 on tumor cell lines; also called Nalm6/GL; CD19 antigen on RAJI-GL and NALM6-GL tumor cells
T1 sequence (looked up): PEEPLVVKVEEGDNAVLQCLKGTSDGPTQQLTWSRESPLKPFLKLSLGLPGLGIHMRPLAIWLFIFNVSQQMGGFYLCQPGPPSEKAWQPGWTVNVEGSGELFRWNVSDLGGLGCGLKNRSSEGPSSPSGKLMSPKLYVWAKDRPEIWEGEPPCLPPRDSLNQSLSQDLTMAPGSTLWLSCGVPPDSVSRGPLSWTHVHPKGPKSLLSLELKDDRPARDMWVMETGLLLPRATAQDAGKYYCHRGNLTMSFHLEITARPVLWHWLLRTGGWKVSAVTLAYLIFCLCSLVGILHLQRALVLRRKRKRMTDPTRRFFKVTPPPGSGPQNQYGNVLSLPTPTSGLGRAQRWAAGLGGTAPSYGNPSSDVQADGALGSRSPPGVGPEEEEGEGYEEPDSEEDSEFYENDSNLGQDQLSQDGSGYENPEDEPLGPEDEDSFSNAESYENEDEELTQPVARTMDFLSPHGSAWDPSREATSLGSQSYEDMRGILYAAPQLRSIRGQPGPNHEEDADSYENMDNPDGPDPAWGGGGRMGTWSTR
Assay: flow cytometry on Nalm6 cells
outcome_measure: Maximum mean fluorescence intensity (30 µg/ml)
No unit in the answer, only the number.

Example entries begin here.
[
  {
    "binder": "31A2 (hybridoma antibody) (antibody, V domains shown, hybridoma mAb from H2L2 mouse (human variable, rat constant regions)) VH: QVQLVESGGGVVQPGRSLRLSCAASGFTFSRHGMHWVRQAPGKGLEWVAVIWYDGSNKYYVDSVKGRFTISRDNSKNTLDLQMNSLRAEDTAVYYCARRSITWDGAFDIWGQGTMVTVSS VL: DIQMTQSPSTLSASVGDRVTISCRASQSISSWLAWYQQKPGKAPKLLIYKASSLESGVPSRFSGSGSGTEFTLTISSLQPDDFATYYCQQYNSAYTFGQGTKLEIK",
    "value_observed": 24700
  },
  {
    "binder": "15F2 (hybridoma antibody) (antibody, V domains shown, hybridoma mAb from H2L2 mouse (human variable, rat constant regions)) VH: QVQLVESGGGVVQPGRSLRLSCAASGFTFSRHGMHWVRQAPGKGLEWVAVIWYDGSNKYYVDSVKGRFTISRDNSKNTLDLQMNSLRAEDTAVYYCARRSITWDGAFDIWGQGTMVTVSS VL: DIQMTQSPSTLSASVGDRVTVTCRASQSIRSWLAWYQQKPGKAPKLLIYKASSLESGVPSRFSGSGSGTEFTLTISSLQPDDFATYYCQQYNSAYTFGQGTKLEIK",
    "value_observed": 21700
  },
  {
    "binder": "52F9 (hybridoma antibody) (antibody, V domains shown, hybridoma mAb from H2L2 mouse (human variable, rat constant regions)) VH: QVQLVESGGGVVQAGRSLRLSCAASGFTFSNYGIHWVRQAPGKGLEWVGVIWHDGSIKNYADFVKGRFTISRDNSEDTLYLQMNSLRAEDTAVYYCAREQGNYYGWGSYKAFDIWGQGTMVTVSS VL: DIQLTQSPSFLSVFVGDRVTITCRASQGISNYLAWYQQKPGKAPELLLYATSTLQSGVPSRLSGSGSGTEFTLTLSSLQPEDFATYYCQQVYSFPYTFGQGTKLEIK",
    "value_observed": 5160
  }
]

Kindly review the next binder as well.
Noted for 19D6 (antibody, V domains shown, hybridoma mAb from H2L2 mouse (human variable, rat constant regions)) VH: QVQLVESGGGVVQPGRSLRLSCAASGFTFSRHGMHWVRQAPGKGLEWVAVIWYDGSNKYYVDSVKGRFTISRDNSKNTLDLQMNSLRAEDTAVYYCARRSITWDGAFDIWGQGTMVTVSS VL: DIQMTQSPSTLSASVGDRVTVTCRASQSIRSWLAWYQQKPGKAPKLLIYKASSLESGVPSRFSGSGSGTEFTLTISSLQPDDFATYYCQQYNSAYTFGQGTKLEIK : its Maximum mean fluorescence intensity (30 µg/ml) reads 10400
